The measurements presented in this section are drawn from patent CN112759647A.

The following binders are listed with their measured IC50 values.
# STUDY_TARGET: 人PD-L1胞外区与人IgG1-FC的融合蛋白 (human) (UniProt Q9NZQ7)
# MEASUREMENT_NOTES: FACS blocking: supernatant premixed with 500 ng PD-L1-hFc; competitor PD-1 on 293T-h-PD1 cells
State the answer as a number, implicitly in µg/mL.

May I ask what IC50 has been recorded for 鼠抗体8A2 (antibody, from another filing, V domains shown) VH: QVQLKQSGPGLVAPSQSLSITCTVSGFSLTGYGVNWVRQPPGKGLEWLGKIWGDGITDYNSALKSRLSISKDNSKSQVFLKMNSLQTDDTARYYCARDVMDYWGQGTSVTVSS VL: QIVLTQSPAIMSASPGEKVTMTCSASSSISYMHWYQQKPGTSPKRWIYDTSKLASGVPARFSGSESGTSYSLTISSMEAEDAATYYCHHRSPYPTFGAGTKLELK ?
5.17

Given the entry 鼠抗体22B10 (antibody, from another filing, V domains shown) VH: QVQLKQSGAELVKPGASVELSCTASGFNIEDTYLHWVNQRPEQGLEWIGRIDPANGNTYYDPKFQGKATITTDTSSNTAYLQLSRLTSEDTAVYYCARGLRLPGFPYWGQGTLVTVSA VL: DIQMTQTPSSLSASLGDRVTISCRASQDISNYLSWYQQKPDGTVKLLIYYTSILHSGVPSRFSGSGSGTDYSLAISNLDQEDIATYFCQQGNTLPWTFGGGTKLEIKR , report its measured IC50.
4.31

In the following, a different binder is considered.
# lookup: IC50 of 鼠抗体28B1 (antibody, from another filing, V domains shown) VH: QVQLKQSGAELVKPGASVMLSCTASAFNIDDTYIHWVKQRPEQGLEWIGRIDPANGNTDYDPECQGKATITTDMSSNTAYLQLSSLTSEDTAVYFCARGLRLPGLVYWGRGTLVTVSA VL: DIQMTQTTSSLSASLGDRVTISCRASQDISNYLNWYQQKPDGTVKLLIYYTSILYSGVPSRFSGSGSGTDYSLTINTLEEEDIATYFCQQGNTLPWTFGGGTKLEIIR
2.31
